Reference source for all entries: paper PMC9895041

Each item that follows carries a reported kcat/Km.
- Substrate: OC[C@@H](O)[C@H](O)[C@@H](O)CO
- test: purified protein
- experimental.conditions: 1-10 mM xylitol, 1.5 mM NAD+, 50 mM Tris-HCl pH 8.0, 30 °C
Report as a plain number; the unit M⁻¹ s⁻¹ is understood.

Previously resolved entries follow.
SpXDH (Schizosaccharomyces pombe 972h-; C100D) (protein) MAPAEKAFVLRKKMDTAIEDRPGQTLTDDHQVKVAIKATGICGSDVHYWKEGGIGDFILKKPMILGHESAGVVVEVGKGVSSLKPGDPVAVEPGCVCRLDDYCRSGRYNLCPHMEFAATPPYDGTLRTYYITTEDFCTKLPKQISVEEGALFEPMSVAVHAMTRGNLKCGSRVLVMGCGTVGLLMMAVAKAYGAIDIVAVDASPSRVEFAQKYVGAKPFTPIAAKENESLPDYAQRYKQAIIEKYGEFDFAVDATGVGICIHTAVLALKRGGTFVQAGNGKPVIDFPINHIINYEINVLGSFRYAHGCYKQSLFLVSNGLVDVKPLITHRFAFKDALKAYETVASGEEGVLKVIIGGPDA ... 263
SpXDH wild type (xylitol dehydrogenase, SPBC1773.05c protein from Schizosaccharomyces pombe) (enzyme, UniProt P36624 1-360, looked up, cloned into pQE-81L; also called SpXDHWT; WT; source: E. coli DH5α, purified (Ni-NTA)) MAPAEKAFVLRKKMDTAIEDRPGQTLTDDHQVKVAIKATGICGSDVHYWKEGGIGDFILKKPMILGHESAGVVVEVGKGVSSLKPGDPVAVEPGCVCRLCDYCRSGRYNLCPHMEFAATPPYDGTLRTYYITTEDFCTKLPKQISVEEGALFEPMSVAVHAMTRGNLKCGSRVLVMGCGTVGLLMMAVAKAYGAIDIVAVDASPSRVEFAQKYVGAKPFTPIAAKENESLPDYAQRYKQAIIEKYGEFDFAVDATGVGICIHTAVLALKRGGTFVQAGNGKPVIDFPINHIINYEINVLGSFRYAHGCYKQSLFLVSNGLVDVKPLITHRFAFKDALKAYETVASGEEGVLKVIIGGPDA ... 1140
SpXDH C97D mutant (enzyme, Schizosaccharomyces pombe, UniProt P36624 1-360, looked up, SPBC1773.05c protein of S. pombe (SpXDH), cloned into pQE-81L; source: E. coli DH5α, purified (Ni-NTA)) MAPAEKAFVLRKKMDTAIEDRPGQTLTDDHQVKVAIKATGICGSDVHYWKEGGIGDFILKKPMILGHESAGVVVEVGKGVSSLKPGDPVAVEPGCVDRLCDYCRSGRYNLCPHMEFAATPPYDGTLRTYYITTEDFCTKLPKQISVEEGALFEPMSVAVHAMTRGNLKCGSRVLVMGCGTVGLLMMAVAKAYGAIDIVAVDASPSRVEFAQKYVGAKPFTPIAAKENESLPDYAQRYKQAIIEKYGEFDFAVDATGVGICIHTAVLALKRGGTFVQAGNGKPVIDFPINHIINYEINVLGSFRYAHGCYKQSLFLVSNGLVDVKPLITHRFAFKDALKAYETVASGEEGVLKVIIGGPDA ... 650

Prompt: // query kcat/Km value for entry SpXDH C103D mutant (enzyme, Schizosaccharomyces pombe, UniProt P36624 1-360, looked up, SPBC1773.05c protein of S. pombe (SpXDH), cloned into pQE-81L; source: E. coli DH5α, purified (Ni-NTA)) MAPAEKAFVLRKKMDTAIEDRPGQTLTDDHQVKVAIKATGICGSDVHYWKEGGIGDFILKKPMILGHESAGVVVEVGKGVSSLKPGDPVAVEPGCVCRLCDYDRSGRYNLCPHMEFAATPPYDGTLRTYYITTEDFCTKLPKQISVEEGALFEPMSVAVHAMTRGNLKCGSRVLVMGCGTVGLLMMAVAKAYGAIDIVAVDASPSRVEFAQKYVGAKPFTPIAAKENESLPDYAQRYKQAIIEKYGEFDFAVDATGVGICIHTAVLALKRGGTFVQAGNGKPVIDFPINHIINYEINVLGSFRYAHGCYKQSLFLVSNGLVDVKPLITHRFAFKDALKAYETVASGEEGVLKVIIGGPDA
Completion: 743
